Attribution: patent US8633216B2

Where a name gives a salt, the structure may show the parent alone.
Is melting point at least 200 °C? Then Met. If not, Not met.

{"Molecule": "COc1cc(C(=O)c2ncc3cc(C(=O)O)ccn23)ccc1[N+](=O)[O-]", "Class": "Met"}
{"Molecule": "COc1cc(C(=O)c2nc(-c3cccc(F)c3)c3ccccn23)ccc1N (as salt: HCl) (hydrate or solvate)", "Class": "Met"}
{"Molecule": "COc1cc(C(=O)c2ncc3c(C(=O)O)cccn23)ccc1N (as salt: Na)", "Class": "Met"}
{"Molecule": "COC(=O)c1ccc2cnc(C(=O)c3ccc([N+](=O)[O-])c(OC)c3)n2c1", "Class": "Met"}
{"Molecule": "COc1cc(C(=O)c2nc(C#N)c3ccccn23)ccc1N (as salt: HCl)", "Class": "Met"}
{"Molecule": "COC(=O)c1cccc(-c2nc(C(=O)c3ccc(N)c(OC)c3)n3ccccc23)c1", "Class": "Not met"}
{"Molecule": "COc1cccc(-c2nc(C(=O)c3ccc(N)c(OC)c3)n3ccc(C(=O)O)cc23)c1 (as salt: Na) (hydrate or solvate)", "Class": "Met"}
{"Molecule": "COC(=O)[C@@H](C)NC(=O)c1ccn2c(C(=O)c3ccc(N)c(OC)c3)ncc2c1 (as salt: HCl) (hydrate or solvate)", "Class": "Not met"}
{"Molecule": "COc1cc(C(=O)c2ncc3c(C(=O)O)cccn23)ccc1[N+](=O)[O-] (as salt: Na)", "Class": "Met"}
{"Molecule": "COc1cc(C(=O)c2ncc3cc(OCC(=O)O)ccn23)ccc1N (as salt: Na) (hydrate or solvate)", "Class": "Met"}
{"Molecule": "COc1cc(C(=O)c2ncc3cc(C(=O)O)ccn23)ccc1N (as salt: HCl) (hydrate or solvate)", "Class": "Met"}
{"Molecule": "COC(=O)c1ccc2cnc(C(=O)c3ccc(N)c(OC)c3)n2c1", "Class": "Not met"}
{"Molecule": "COc1cc(C(=O)c2ncc3ccc(C(=O)N[C@@H](CO)C(=O)O)cn23)ccc1N (as salt: Na) (hydrate or solvate)", "Class": "Met"}
